Origin of the recorded values: paper PMC12783166

test: Individual predicted steady-state exposures; assay type: in vivo, human; conditions: human, plasma, oral, 60 mg, AUC24, Median (5th to 95th percentile), ADVANCE EM, 60 mg QD
property-name: AUC (ng·h/mL)
Answer in ng·h/mL, number only, no unit symbol.

Item C[C@@H]1[C@H](c2c(F)ccc(F)c2F)C[C@H](NC(=O)c2cnc3c(c2)C[C@@]2(C3)C(=O)Nc3ncccc32)C(=O)N1CC(F)(F)F has what recorded AUC?
3220

---

assay: Individual predicted steady-state exposures; assay type: in vivo, human; details: human, plasma, oral, 60 mg, AUC24, Mean (SD), ELEVATE EM, 60 mg QD
property-name: AUC (ng·h/mL)
Answer in ng·h/mL, number only, no unit symbol.

Item C[C@@H]1[C@H](c2c(F)ccc(F)c2F)C[C@H](NC(=O)c2cnc3c(c2)C[C@@]2(C3)C(=O)Nc3ncccc32)C(=O)N1CC(F)(F)F has what recorded AUC?
3530

---

experiment: Individual predicted steady-state exposures; assay type: in vivo, human; settings: human, plasma, oral, 10 mg, AUC24, Median (5th to 95th percentile), CGP-MD-01 EM, 10 mg QD
property-name: AUC (ng·h/mL)
Answer in ng·h/mL, number only, no unit symbol.

Item C[C@@H]1[C@H](c2c(F)ccc(F)c2F)C[C@H](NC(=O)c2cnc3c(c2)C[C@@]2(C3)C(=O)Nc3ncccc32)C(=O)N1CC(F)(F)F has what recorded AUC?
464

---

assay: Individual predicted steady-state exposures; type: in vivo, human; settings: human, plasma, oral, 30 mg, Cmax, Median (5th to 95th percentile), PROGRESS CM, 30 mg BID
property-name: Cmax (ng/mL)
Answer in ng/mL, number only, no unit symbol.

Item C[C@@H]1[C@H](c2c(F)ccc(F)c2F)C[C@H](NC(=O)c2cnc3c(c2)C[C@@]2(C3)C(=O)Nc3ncccc32)C(=O)N1CC(F)(F)F has what recorded Cmax?
296

---

test: Individual predicted steady-state exposures; assay type: in vivo, human; settings: human, plasma, oral, 30 mg, AUC24, Median (5th to 95th percentile), PROGRESS CM, 30 mg BID
property-name: AUC

Item C[C@@H]1[C@H](c2c(F)ccc(F)c2F)C[C@H](NC(=O)c2cnc3c(c2)C[C@@]2(C3)C(=O)Nc3ncccc32)C(=O)N1CC(F)(F)F [atogepant, Atogepant] has what recorded AUC?
3230 ng·h/mL

---

assay: Individual predicted steady-state exposures; type: in vivo, human; conditions: human, plasma, oral, 10 mg, AUC24, Mean (SD), ADVANCE EM, 10 mg QD
property-name: AUC (ng·h/mL)
Answer in ng·h/mL, number only, no unit symbol.

Item C[C@@H]1[C@H](c2c(F)ccc(F)c2F)C[C@H](NC(=O)c2cnc3c(c2)C[C@@]2(C3)C(=O)Nc3ncccc32)C(=O)N1CC(F)(F)F has what recorded AUC?
525

---

assay: Individual predicted steady-state exposures; assay type: in vivo, human; details: human, plasma, oral, 30 mg, AUC24, Median (5th to 95th percentile), CGP-MD-01 EM, 30 mg QD
property-name: AUC (µg·h/mL)
Answer in µg·h/mL, number only, no unit symbol.

Item C[C@@H]1[C@H](c2c(F)ccc(F)c2F)C[C@H](NC(=O)c2cnc3c(c2)C[C@@]2(C3)C(=O)Nc3ncccc32)C(=O)N1CC(F)(F)F has what recorded AUC?
1.59
